Overview of recorded IC50 for various molecules
molecular target: CCR8 (Homo sapiens); assay: Tango assay (Tango-CCR8-Gal4-CHO-K1 cells, CCL1-stimulated, ONE-Glo luminescence); settings: Tango Assay IC50, Inhibition of CCR8 Tango cell in vitro
Sequence (P51685 whole entry, the tested form may be a part): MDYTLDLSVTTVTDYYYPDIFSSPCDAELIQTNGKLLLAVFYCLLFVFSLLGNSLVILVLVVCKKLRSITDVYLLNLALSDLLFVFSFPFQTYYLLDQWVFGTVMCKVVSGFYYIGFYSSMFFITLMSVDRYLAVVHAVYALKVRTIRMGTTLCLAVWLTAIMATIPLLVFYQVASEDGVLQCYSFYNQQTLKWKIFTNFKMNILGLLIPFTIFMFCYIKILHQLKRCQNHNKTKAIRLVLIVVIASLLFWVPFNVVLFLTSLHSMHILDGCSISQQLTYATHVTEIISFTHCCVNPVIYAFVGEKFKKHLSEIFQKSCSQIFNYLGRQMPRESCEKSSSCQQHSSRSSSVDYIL
Metric name: IC50

[[record]]
molecule = "Cc1ccccc1C(=O)Nc1ccc(S(=O)(=O)NC23CC(C2)C3)c2ccccc12"
metric_name = "IC50"
measured_value = "> 10 µM"

[[record]]
molecule = "Cc1ccccc1NC(=O)c1ccc(S(=O)(=O)NC(C)C2CCCCC2)cc1 (stereo not drawn)"
metric_name = "IC50"
measured_value = "> 10 µM"

[[record]]
molecule = "Cc1c(C(=O)O)cccc1S(=O)(=O)NC(C)C1CC2CCC1CC2 (stereo not drawn)"
metric_name = "IC50"
measured_value = "> 10 µM"


###

target: UniProt P51685; assay: Tango assay (Tango-CCR8-Gal4-CHO-K1 cells, CCL1-stimulated, ONE-Glo luminescence); settings: Tango Assay IC50, Inhibition of CCR8 Tango cell in vitro
pIC50: −log10 of the molar value. Structures can show the parent of a compound that is named as a salt.
Each entry below lists one item and its recorded pIC50 value.
Metric name: pIC50

[[record]]
compound = "Cc1ccccc1C(=O)Nc1cc(Cl)c(S(=O)(=O)N[C@@H](C)C2CCNCC2)cc1Cl [Compound 243B, hydrochloride]"
measured_value = "< 4.00"

[[record]]
compound = "CCCN1CCN(c2cccc(C(=O)NS(=O)(=O)c3ccc(NC(=O)c4ccccc4C)c4ccccc34)c2)CC1 [Compound 11]"
measured_value = "< 5.00"

[[record]]
compound = "CC(NS(=O)(=O)c1ccc2[nH]c(=O)[nH]c(=O)c2c1)C1CC2CCC1CC2 (stereo not shown) [Compound 133]"
measured_value = "< 5.00"

[[record]]
compound = "Cc1cc(S(=O)(=O)N[C@@H](C)C2CCN(C)CC2)c(F)cc1NC(=O)c1ccccc1C [Compound 262A]"
measured_value = "< 4.00"


###

biological target: CCR8 (Homo sapiens); test: Tango assay (Tango-CCR8-Gal4-CHO-K1 cells, CCL1-stimulated, ONE-Glo luminescence); settings: Tango Assay IC50, Inhibition of CCR8 Tango cell in vitro
Counter-ions that a name gives are not always drawn.
Metric name: IC50

[[record]]
compound = "Cc1cc(S(=O)(=O)N[C@H](C)C2CCNCC2)ccc1NC(=O)C1CCC1"
tested_on = "CCR8 (Homo sapiens)"
measured_value = "> 100 µM"

[[record]]
compound = "CCCN1CCN(c2ccc(OC)c(NS(=O)(=O)c3ccc(NC(=O)c4ccccc4C)c4ccccc34)c2)CC1"
tested_on = "CCR8 (Homo sapiens)"
measured_value = "> 10 µM"

[[record]]
compound = "Cc1ccccc1C(=O)Nc1ccc(S(=O)(=O)N[C@H](C)C2CCNCC2)c(C(F)(F)F)c1 [Compound 189A, hydrochloride]"
tested_on = "CCR8 (Homo sapiens)"
measured_value = "> 10 µM"

[[record]]
compound = "Cc1ccccc1C(=O)Nc1ccc(S(=O)(=O)Nc2ccc3c(c2)N(C(=O)CN(C)C)CC3)c2ccccc12"
tested_on = "CCR8 (Homo sapiens)"
measured_value = "> 10 µM"

[[record]]
compound = "O=S(=O)(NC1CCOCC1)c1ccc(-c2nc3ccccc3[nH]2)cc1"
tested_on = "CCR8 (Homo sapiens)"
measured_value = "> 10 µM"

[[record]]
compound = "Cc1ccccc1C(=O)Nc1ccc(S(=O)(=O)NC(C)c2cccc(C(=O)O)c2)cc1 (stereo not drawn)"
tested_on = "CCR8 (Homo sapiens)"
measured_value = "> 10 µM"

